# Species on record: Rattus norvegicus
# EXPERIMENTAL_PROTOCOL: Open TG-GATES - Regimen: Daily Repeat
# Format: toxicity, organism-based, Sprague-Dawley
# Parameters: regimen Daily Repeat, gender Male, age 6 weeks
# APPLIED_CONDITIONS: in vivo, po, 100 mg/kg, 72 h, tissue Plasma, route gavage, dose level Low, time 3 day
ASSAY_ENDPOINT: Ca (mg/dL)
Give the value in mg/dL but do not write mg/dL after it.

Solved entries (count: 3):
CC(=O)[C@@]1(O)CC[C@H]2[C@@H]3C=C(Cl)C4=CC(=O)CC[C@]4(C)[C@H]3CC[C@@]21C | 10.7
CCCCNC(=O)NS(=O)(=O)c1ccc(C)cc1 [TOLBUTAMIDE] | 11.1
CC(S)C(=O)NCC(=O)O (centres undefined) | 10.6

Query: Ca lookup needed for O=C(O)c1ccccc1Nc1ccccc1 , thanks.
Response: 11.7
